Assay: P. aeruginosa biofilm formation inhibitors, primary screen, PAO1 strain, BacTiter-Glo luminescence, LB-PBS (AID 1144)
Settings: 12 h, higher = more signal
Values of z-score greater than or equal to -0.2 map to Criterion met; values below map to Criterion not met.

compound	answerLabel
O=C1NCC(=O)N2[C@@H]1C[C@@H](C(=O)O)[C@H]2c1ccc(O)cc1	Criterion not met
CN(C)C(=O)[C@@]1(Cc2ccccc2N=[N+]=[N-])COC(c2ccc(OCCCO)cc2)=N1	Criterion met
COc1ccc(CCNC(=O)[C@@]2(Sc3ccc(C)cc3)CC(=O)N(Cc3cc(C(F)(F)F)cc(C(F)(F)F)c3)[C@@H]2c2ccc(CO)cc2I)cc1	Criterion not met
O=C(N1CCCCC1)[C@@]1(Cc2ccccc2)COC(c2ccc(OCCCO)cc2)=N1	Criterion met
CC(=O)n1cc(C(O)C2C=CC3C(=O)N(Cc4ccccc4)C(=O)C3N2n2cnnc2)c2ccccc21 (stereo not given)	Criterion met
COc1cc2c(cc1O)C(C)N(Cc1cc3c(cc1Br)OCO3)CC2 (stereo not given)	Criterion met
CC(C)OC(=O)CC(=O)CC(O)c1cccc(C#N)c1 (stereo not given)	Criterion not met
CN(C)CCCNC(=O)[C@@H]1c2ccccc2C(=O)N(Cc2ccc(OC(F)(F)F)cc2)[C@H]1c1ccc(CO)cc1	Criterion not met
O=C(O)[C@H]1C[C@H]2C(=O)N3CCC[C@H]3C(=O)N2[C@H]1c1cccc(OCCO)c1	Criterion met
CCOc1cc(C(O)C2C=CC3C(=O)N(C)C(=O)C3N2N2CCCCC2)ccc1O (stereo not given)	Criterion not met
COCCOC(=O)N1C(=O)[C@@]2(c3cc(C#CC4=CCCCC4)ccc31)[C@H](c1ccccc1OCCO)N1[C@H](c3ccccc3)[C@H](c3ccccc3)OC(=O)[C@H]1[C@@H]2C(=O)N1CCc2cc(OC)c(OC)cc2C1	Criterion not met
C=CC[C@]12N=C(c3ccc(OCCCO)cc3)O[C@H]1c1ccccc1N(C)C2=O	Criterion not met
O=C1O[C@@H](c2ccccc2)[C@@H](c2ccccc2)N2[C@@H](c3ccc(O)cc3)[C@]3(C(=O)Nc4ccc(C#CCCO)cc43)[C@@H](C(=O)NC[C@H](O)c3ccccc3)[C@H]12	Criterion met
COCCOC(=O)N1C(=O)[C@@]2(c3ccccc31)[C@H](c1ccc(OCCO)cc1)N1[C@H](c3ccccc3)[C@H](c3ccccc3)OC(=O)[C@H]1[C@@H]2C(=O)Nc1nc2ccccc2s1	Criterion not met
